- system.tested: Serine/threonine-protein kinase Nek11 (Homo sapiens, UniProt Q8NG66)
- Sequence (Q8NG66 whole entry): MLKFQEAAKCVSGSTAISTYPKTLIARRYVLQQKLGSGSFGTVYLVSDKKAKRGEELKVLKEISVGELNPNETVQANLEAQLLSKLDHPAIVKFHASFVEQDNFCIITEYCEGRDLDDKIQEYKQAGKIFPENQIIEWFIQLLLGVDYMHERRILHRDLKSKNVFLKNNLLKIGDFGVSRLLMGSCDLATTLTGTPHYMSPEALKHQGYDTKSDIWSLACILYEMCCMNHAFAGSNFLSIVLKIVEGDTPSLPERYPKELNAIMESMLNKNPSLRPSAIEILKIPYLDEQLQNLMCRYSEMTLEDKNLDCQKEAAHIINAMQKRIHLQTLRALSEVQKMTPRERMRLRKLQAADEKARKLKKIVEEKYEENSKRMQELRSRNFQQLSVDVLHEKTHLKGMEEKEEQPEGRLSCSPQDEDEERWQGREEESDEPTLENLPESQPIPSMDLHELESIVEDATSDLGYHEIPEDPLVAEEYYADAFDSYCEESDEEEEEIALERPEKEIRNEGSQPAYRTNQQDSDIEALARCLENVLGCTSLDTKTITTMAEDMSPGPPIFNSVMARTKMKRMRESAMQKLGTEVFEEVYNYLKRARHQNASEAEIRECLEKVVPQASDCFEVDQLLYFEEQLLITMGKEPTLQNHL
measured.quantity: Ki

Field Ki (entry N#Cc1ncc2nc1OCCCCOc1cc(NCc3cncs3)c(Cl)cc1NC(=O)N2 ) reads > 1550 nM

###

- system.tested: Serine/threonine-protein kinase Chk1 (Homo sapiens)
- Sequence (O14757 whole entry): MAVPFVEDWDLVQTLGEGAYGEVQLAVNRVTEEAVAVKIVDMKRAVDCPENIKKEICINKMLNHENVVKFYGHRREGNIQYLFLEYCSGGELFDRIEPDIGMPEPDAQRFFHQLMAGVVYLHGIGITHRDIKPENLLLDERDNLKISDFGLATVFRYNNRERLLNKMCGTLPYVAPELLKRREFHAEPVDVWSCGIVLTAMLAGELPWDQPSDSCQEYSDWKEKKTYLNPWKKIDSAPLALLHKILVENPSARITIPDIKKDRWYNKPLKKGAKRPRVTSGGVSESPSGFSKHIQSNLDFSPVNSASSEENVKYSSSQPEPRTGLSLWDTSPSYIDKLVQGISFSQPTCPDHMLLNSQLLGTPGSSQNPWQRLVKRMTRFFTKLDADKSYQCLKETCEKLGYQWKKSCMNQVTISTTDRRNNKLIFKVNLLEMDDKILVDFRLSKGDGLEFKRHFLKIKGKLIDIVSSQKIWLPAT
Lab note: compare IC50 with 1 nM, writing Satisfied if less and Not satisfied if equal or more.

(Q) State whether 1 nM exceeds IC50 recorded for N#Cc1ncc2nc1OCCCCOc1cc(O)c(Cl)cc1NC(=O)N2 .
(A) Satisfied

(Q) State whether 1 nM exceeds IC50 recorded for N#Cc1ncc2nc1OCCCCOc1cc(NC(=O)OCCN3CCOCC3)c(Cl)cc1NC(=O)N2 .
(A) Not satisfied

(Q) State whether 1 nM exceeds IC50 recorded for N#Cc1ncc2nc1OC/C=C\COc1cc(N3CCOC3=O)c(Cl)cc1NC(=O)N2 .
(A) Not satisfied

(Q) State whether 1 nM exceeds IC50 recorded for CNc1cc2c(cc1Cl)NC(=O)Nc1cnc(C#N)c(n1)OCCCCO2 .
(A) Not satisfied

(Q) State whether 1 nM exceeds IC50 recorded for COCCCOc1cc2c(cc1Cl)NC(=O)Nc1cnc(C#N)c(n1)OCCCCO2 .
(A) Not satisfied

(Q) State whether 1 nM exceeds IC50 recorded for N#Cc1ncc2nc1OC/C=C\COc1cc(NC(=O)c3ccncc3)c(Cl)cc1NC(=O)N2 .
(A) Not satisfied

(Q) State whether 1 nM exceeds IC50 recorded for N#Cc1ncc2nc1OC/C=C\COc1cc(N)c(Cl)cc1NC(=O)N2 .
(A) Satisfied

(Q) State whether 1 nM exceeds IC50 recorded for N#Cc1ncc2nc1OC/C=C\COc1cc(NCCO)c(Cl)cc1NC(=O)N2 .
(A) Not satisfied

(Q) State whether 1 nM exceeds IC50 recorded for N#Cc1ncc2nc1OCCCCOc1cc(OCCO)c(Cl)cc1NC(=O)N2 .
(A) Not satisfied

Sourced from ChEMBL document CHEMBL1140564
